assay.remarks: Cell selectivity, Trypan blue cell viability, LC50
Assay type: cell-based, mouse
measurement.parameters: 50% cell mortality after 24 h incubation, medium without serum; read-out: Lethal Concentration (LC50), NIH-3T3 fibroblasts
Square brackets hold non-standard residues; d marks the D form. Peptide text beside a SMILES is read from it.
value.kind: CC50

Ask: For CC(C)C[C@H](NC(=O)[C@H](CCCCN)NC(=O)[C@@H](CC(C)C)NC(=O)[C@@H](CC(C)C)NC(=O)[C@H](CC(C)C)NC(=O)[C@@H](N)CCCCN)C(=O)N[C@@H](CC(C)C)C(=O)N[C@H](CC(C)C)C(=O)N[C@@H](CCCCN)C(=O)N[C@H](CC(C)C)C(=O)N[C@@H](CC(C)C)C(=O)N[C@@H](CCCCN)C(N)=O [Peptide 1, [D]-L^3,4,8,10-K4L8, reference compound] (H-KL[dL][dL]KLL[dL]K[dL]LK-NH2; N-terminus assumed) , what is its reported CC50?
Result: 100 µg/mL
